molecular target: PIM1 serine/threonine kinase (Homo sapiens, UniProt P11309); test: PIM1 serine/threonine kinase inhibitory effect; conditions: PIM1 serine/threonine kinase activity; ATP 40 μM; 30° C., 30 minutes
Sequence (P11309 whole entry): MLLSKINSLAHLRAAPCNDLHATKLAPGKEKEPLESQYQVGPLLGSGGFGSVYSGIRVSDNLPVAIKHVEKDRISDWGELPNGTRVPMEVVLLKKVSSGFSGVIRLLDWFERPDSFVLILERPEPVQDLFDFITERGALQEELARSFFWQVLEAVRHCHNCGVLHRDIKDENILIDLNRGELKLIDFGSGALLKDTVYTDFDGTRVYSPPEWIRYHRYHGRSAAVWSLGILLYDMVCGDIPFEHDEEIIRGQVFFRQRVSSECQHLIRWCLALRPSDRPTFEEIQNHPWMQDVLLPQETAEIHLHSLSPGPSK
Structures can show the parent of a compound that is named as a salt.
Each record is given true if its reported IC50 is strictly below 4 nM. Records at or above 4 nM are given false.

Ask | Determine if NCCCCNc1cc(-c2n[nH]c(=O)o2)ccc1C(F)(F)F [Example 1, hydrochloride] shows IC50 strictly lower than 4 nM.
Reply | false

Ask | Determine if CC(C)(C)OC(=O)NCc1ccc(-c2cc(-c3n[nH]c(=O)o3)ccc2C(F)(F)F)cc1 shows IC50 strictly lower than 4 nM.
Reply | false

Ask | Determine if N[C@H]1CC[C@H](CSc2cc(-c3n[nH]c(=O)o3)ccc2C(F)(F)F)CC1 shows IC50 strictly lower than 4 nM.
Reply | true

Ask | Determine if C[C@H](Nc1cc(-c2n[nH]c(=O)o2)cc(S(F)(F)(F)(F)F)c1)C1CCNCC1 [Example 107, hydrochloride] shows IC50 strictly lower than 4 nM.
Reply | false

Ask | Determine if CC[C@H](Nc1cc(-c2n[nH]c(=O)o2)ccc1C(F)(F)F)[C@H]1CC[C@H](N)CC1 [Example 181, hydrochloride] shows IC50 strictly lower than 4 nM.
Reply | true

Ask | Determine if COc1ccc(-c2n[nH]c(=O)o2)cc1N[C@@H](C)C1CCNCC1 [Example 82, dihydrochloride] shows IC50 strictly lower than 4 nM.
Reply | false

Ask | Determine if O=c1[nH]nc(-c2ccc(C(F)(F)F)c(NC3CC34CCNCC4)c2)o1 (stereo not drawn) [Example 42, hydrochloride] shows IC50 strictly lower than 4 nM.
Reply | false

Ask | Determine if N[C@H]1CC[C@H](Nc2cc(-c3n[nH]c(=O)o3)ccc2Br)CC1 [Example 35, hydrochloride] shows IC50 strictly lower than 4 nM.
Reply | false

Ask | Determine if C[C@@H](CN)Oc1ccc(-c2cc(-c3n[nH]c(=O)o3)ccc2C(F)(F)F)cc1 [Example 24, hydrochloride] shows IC50 strictly lower than 4 nM.
Reply | false

Ask | Determine if CC[C@H](Nc1cc(-c2n[nH]c(=O)o2)cc(F)c1C(F)(F)F)[C@H]1CC[C@H](N)CC1 shows IC50 strictly lower than 4 nM.
Reply | true

Ask | Determine if CCN[C@H]1CC[C@H]([C@H](C)Nc2cc(-c3n[nH]c(=O)o3)ccc2C(F)(F)F)CC1 [Example 193, hydrochloride] shows IC50 strictly lower than 4 nM.
Reply | false

Ask | Determine if C[C@H](Nc1cc(-c2n[nH]c(=O)o2)ccc1C(F)(F)F)[C@H]1CC[C@H](N)CC1 [Example 106, hydrochloride] shows IC50 strictly lower than 4 nM.
Reply | true

Ask | Determine if C[C@@H]1CNCC[C@@H]1[C@H](C)Nc1cc(-c2n[nH]c(=O)o2)cc(F)c1Cl shows IC50 strictly lower than 4 nM.
Reply | true

Ask | Determine if C[C@H](Nc1cc(-c2n[nH]c(=O)o2)ccc1C(F)(F)F)[C@H]1C[C@@H](N)C1(C)C [Example 153, hydrochloride] shows IC50 strictly lower than 4 nM.
Reply | true

###

target: PIM3 serine/threonine kinase (Homo sapiens); test: PIM3 serine/threonine kinase inhibitory effect; details: PIM3 serine/threonine kinase activity; ATP 10 μM; 30° C., 30 minutes
Where a name gives a salt, the structure may show the parent alone.
value-kind: IC50 (µM)
Provide the reading as a plain figure in µM.

Ask | Please list IC50 recorded for the compound CC(Nc1cc(-c2n[nH]c(=O)o2)ccc1C(F)(F)F)C1CCNCC1 (stereo not shown) [Example 52, hydrochloride]
Reply | 0.012

Ask | Please list IC50 recorded for the compound N[C@H]1CC[C@H](CNc2cc(-c3n[nH]c(=O)o3)ccc2Cl)CC1 [Example 61, hydrochloride]
Reply | 0.005

Ask | Please list IC50 recorded for the compound O=c1[nH]nc(-c2ccc(C(F)(F)F)c(-c3cncc(N4CCNCC4)c3)c2)o1 [Example 25, dihydrochloride]
Reply | 0.74

Ask | Please list IC50 recorded for the compound NC[C@H]1CC[C@H](Nc2cc(-c3n[nH]c(=O)o3)ccc2C(F)(F)F)CC1 [Example 37, hydrochloride]
Reply | 0.01

Ask | Please list IC50 recorded for the compound NCc1cccc(-c2cc(-c3n[nH]c(=O)o3)ccc2Cl)c1 [Example 18, hydrochloride]
Reply | 0.34

Ask | Please list IC50 recorded for the compound N[C@H]1CC[C@H](CNc2cc(-c3n[nH]c(=O)o3)ccc2Br)CC1 [Example 68, hydrochloride]
Reply | 0.005

Ask | Please list IC50 recorded for the compound C[C@H](Nc1cc(-c2n[nH]c(=O)o2)cc(F)c1C(F)(F)F)C1CCNCC1.Cl [Example 75, hydrochloride]
Reply | 0.01

Ask | Please list IC50 recorded for the compound C[C@H](Nc1cc(-c2n[nH]c(=O)o2)ccc1C(F)(F)F)C1CCNCC1 [Example 58, hydrochloride]
Reply | 0.016

Ask | Please list IC50 recorded for the compound CC(Nc1cc(-c2n[nH]c(=O)o2)ccc1C(F)(F)F)[C@H]1CC[C@H](N)CC1 (stereo partly shown) [Example 63, hydrochloride]
Reply | 0.005

Ask | Please list IC50 recorded for the compound N[C@H]1CC[C@H](CNc2cc(-c3n[nH]c(=O)o3)cc(F)c2C(F)(F)F)CC1 [Example 69, hydrochloride]
Reply | 0.004

FYI, the data here is from patent US20220024921A1.
